B1: BCL2L13 (parent)
chain: YIIQQGGWGTVFSLESEEEEYPGI

Variants of: B1
method description: protein stability index of a GFP-peptide fusion (GPS, HEK-293T) (PSI 1-6); higher = more stable;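 also: lentivirally expressed fusions sorted by FACS into six bins by GFP to DsRed ratio, PSI derived from sequencing read proportions per bin multiplied by bin number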
conditions used: c terminus: a fixed tail appended
As shown below, each of these variants has a reported protein stability index value.
measured parameter: protein stability index

{"mut": "G7L", "reported measurement": 1.82}
{"mut": "G23I", "reported measurement": 1.76}
{"mut": "E17A", "reported measurement": 1.23}
{"mut": "P22K", "reported measurement": 2.65}
{"mut": "T10I", "reported measurement": 3.06}
{"mut": "G7I", "reported measurement": 2.58}
{"mut": "G23V", "reported measurement": 1.85}
{"mut": "E19Y", "reported measurement": 2.41}
{"mut": "I2H", "reported measurement": 2.9}
{"mut": "G7K", "reported measurement": 2.06}
{"mut": "E19C", "reported measurement": 3.36}
{"mut": "L14Q", "reported measurement": 1.78}
{"mut": "V11R", "reported measurement": 1.91}
{"mut": "V11Y", "reported measurement": 2.04}
{"mut": "S16G", "reported measurement": 2.38}
{"mut": "E15F", "reported measurement": 2.92}
{"mut": "F12M", "reported measurement": 2.98}
{"mut": "S16I", "reported measurement": 4.26}
{"mut": "E17Y", "reported measurement": 3.21}
{"mut": "G6K", "reported measurement": 2.9}
{"mut": "P22V", "reported measurement": 1.37}
{"mut": "G23K", "reported measurement": 2.61}
{"mut": "L14R", "reported measurement": 1.87}
{"mut": "F12E", "reported measurement": 2.66}
{"mut": "G9S", "reported measurement": 1.68}
{"mut": "S16H", "reported measurement": 2.01}
{"mut": "I24G", "reported measurement": 2.85}
{"mut": "W8V", "reported measurement": 1.53}
{"mut": "V11K", "reported measurement": 1.64}
{"mut": "G23Y", "reported measurement": 2.18}
{"mut": "E15S", "reported measurement": 2.81}
{"mut": "W8H", "reported measurement": 2.81}
{"mut": "Y21M", "reported measurement": 2.26}
{"mut": "I3A", "reported measurement": 1.58}
{"mut": "I2D", "reported measurement": 3.9}
{"mut": "S13E", "reported measurement": 1.33}
{"mut": "Y21N", "reported measurement": 1.74}
{"mut": "G23Q", "reported measurement": 1.84}
{"mut": "V11L", "reported measurement": 1.36}
{"mut": "E20P", "reported measurement": 2.87}
{"mut": "F12V", "reported measurement": 1.65}
{"mut": "G9T", "reported measurement": 3}
{"mut": "G9K", "reported measurement": 1.7}
{"mut": "E15L", "reported measurement": 2.57}
{"mut": "L14S", "reported measurement": 2.23}
{"mut": "F12R", "reported measurement": 1.83}
{"mut": "S13N", "reported measurement": 3.23}
{"mut": "Q4W", "reported measurement": 2.88}
{"mut": "G7R", "reported measurement": 1.73}
{"mut": "S13H", "reported measurement": 1.43}
{"mut": "E15P", "reported measurement": 2.02}
{"mut": "E18Q", "reported measurement": 2.13}
{"mut": "L14I", "reported measurement": 1.76}
{"mut": "I2F", "reported measurement": 2.68}
{"mut": "W8R", "reported measurement": 2.37}
{"mut": "F12T", "reported measurement": 2.13}
{"mut": "W8F", "reported measurement": 2.83}
{"mut": "Q4E", "reported measurement": 1.4}
{"mut": "G7E", "reported measurement": 1.74}
{"mut": "E19P", "reported measurement": 1.82}
{"mut": "T10D", "reported measurement": 1.31}
{"mut": "G23P", "reported measurement": 1.97}
{"mut": "Y1F", "reported measurement": 1.18}
{"mut": "E15T", "reported measurement": 1.67}
{"mut": "I24D", "reported measurement": 1.54}
{"mut": "Y1E", "reported measurement": 2.86}
{"mut": "G7S", "reported measurement": 1.46}
{"mut": "P22T", "reported measurement": 2.02}
{"mut": "I2E", "reported measurement": 5.34}
{"mut": "S13T", "reported measurement": 1.62}
{"mut": "L14K", "reported measurement": 1.5}
{"mut": "E20C", "reported measurement": 1.91}
{"mut": "E15M", "reported measurement": 3.49}
{"mut": "G6H", "reported measurement": 1.48}
{"mut": "W8G", "reported measurement": 2.58}
{"mut": "Y1D", "reported measurement": 3.47}
{"mut": "S16M", "reported measurement": 2.68}
{"mut": "T10M", "reported measurement": 1.4}
{"mut": "V11I", "reported measurement": 1.78}
{"mut": "E17W", "reported measurement": 2.52}
{"mut": "F12D", "reported measurement": 2.35}
{"mut": "W8M", "reported measurement": 1.88}
{"mut": "Q4R", "reported measurement": 2.35}
{"mut": "W8I", "reported measurement": 1.66}
{"mut": "E15G", "reported measurement": 1.82}
{"mut": "Y21Q", "reported measurement": 2.33}
{"mut": "Y21H", "reported measurement": 2.53}
{"mut": "G9C", "reported measurement": 3.36}
{"mut": "L14E", "reported measurement": 2.57}
{"mut": "P22I", "reported measurement": 3.56}
{"mut": "Q5N", "reported measurement": 1.73}
